target or system: human kinesin spindle protein KSP/Eg5 (Homo sapiens)
Construct: The motor domain of the human kinesin spindle protein KSP/Eg5
assay summary: Inhibition of the kinesin spindle protein KSP/Eg5 (ATPase, malachite green)
assay context: 10 nM KSP motor domain, 500 μM ATP, 2 h RT
Lab note: cut-off is 2 nM. Strictly less in IC50 is label 1. Exactly 2 nM or more is label 0.

>>> cat("CC(C)(C)[C@H](c1cc(-c2cc(F)ccc2F)cn1Cc1ccccc1)N(CC[C@H](N)C(=O)NCCC(=O)NCCN1C(=O)CC(SC[C@H](N)C(=O)O)C1=O)C(=O)CO.O=C(O)C(F)(F)F (some centres unmarked)")
"label 0"
>>> cat("C[C@H](O)C(=O)N(CCCN)[C@@H](c1nn(-c2cc(F)ccc2F)cc1Cc1ccccc1)C(C)(C)C")
"label 1"
>>> cat("CC(C)(C)[C@H](c1nc(-c2cc(F)ccc2F)cn1Cc1ccccc1)N(CC[C@H](N)C(=O)NCCC(=O)NCCN1C(=O)CC(SC[C@H](N)C(=O)O)C1=O)C(=O)CO.O=C(O)C(F)(F)F (some centres unmarked)")
"label 1"
>>> cat("CC(C)(C)[C@H](c1nc(-c2cc(F)ccc2F)cn1Cc1ccccc1)N(CC[C@H](N)C(=O)O)C(=O)CO.O=C(O)C(F)(F)F")
"label 0"

###

assay summary: Cell permeability, flux assay using Caco-2 cells
assay context: human, Caco-2
In this section, each of the molecules is paired with its reported efflux ratio at 2 h.
readout: efflux ratio at 2 h

>>> test_value("CC(C)(C)[C@H](c1cc(-c2cc(F)ccc2F)cn1Cc1ccccc1)N(CC[C@H](N)C(=O)NCCN)C(=O)CO.O=C(O)C(F)(F)F")
34
>>> test_value("CC(C)(C)[C@H](c1nn(-c2cc(F)ccc2F)cc1Cc1ccccc1)N(CCCN)C(=O)CO")
16
>>> test_value("CC(C)(C)[C@H](c1cc(-c2cc(F)ccc2F)cn1Cc1ccccc1)N(CCCN)C(=O)CSCCC(N)C(=O)O.O=C(O)C(F)(F)F.O=C(O)C(F)(F)F (stereo partly drawn)")
14

###

target or system: human kinesin spindle protein KSP/Eg5 (Homo sapiens, UniProt P52732)
Construct: The motor domain of the human kinesin spindle protein KSP/Eg5
Sequence (P52732 18-359 limits assumed): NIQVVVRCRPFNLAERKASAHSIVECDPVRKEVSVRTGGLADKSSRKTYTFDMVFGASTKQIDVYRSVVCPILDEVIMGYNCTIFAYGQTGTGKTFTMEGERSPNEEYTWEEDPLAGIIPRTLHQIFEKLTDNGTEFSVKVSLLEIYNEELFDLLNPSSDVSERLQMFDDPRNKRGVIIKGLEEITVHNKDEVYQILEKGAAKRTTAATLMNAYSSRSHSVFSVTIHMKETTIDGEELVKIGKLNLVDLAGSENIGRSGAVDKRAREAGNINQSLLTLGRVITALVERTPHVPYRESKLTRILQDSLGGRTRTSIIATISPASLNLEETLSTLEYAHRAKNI
assay summary: Inhibition of the kinesin spindle protein KSP/Eg5 (ATPase, malachite green)
assay context: 10 nM KSP motor domain, 500 μM ATP, 2 h RT
pIC50: −log10 of the molar value.
Label scheme for pIC50: lower than 9 is -1, 9 and above is 1.

>>> cat("C[C@H](NC(=O)[C@@H](N)CCN(C(=O)CO)[C@@H](c1cc(-c2cc(F)ccc2F)cn1Cc1ccccc1)C(C)(C)C)C(=O)O")
1
>>> cat("CC(C)(C)[C@H](c1cc(-c2cc(F)ccc2F)cn1Cc1ccccc1)N(CCCN)C(=O)[C@@H]1CCCO1")
-1
>>> cat("CC(C)(C)[C@H](c1cc(-c2cc(F)ccc2F)cn1Cc1ccccc1)N(CCCN)C(=O)CCC(=O)O")
1

###

target or system: human kinesin spindle protein KSP/Eg5 (Homo sapiens)
Construct: The motor domain of the human kinesin spindle protein KSP/Eg5
assay summary: Inhibition of the kinesin spindle protein KSP/Eg5 (ATPase, malachite green)
assay context: 10 nM KSP motor domain, 500 μM ATP, 2 h RT
pIC50: −log10 of the molar value.
readout: pIC50

>>> test_value("CC(=O)N(CCCN)[C@@H](c1nn(-c2cc(F)ccc2F)cc1Cc1ccccc1)C(C)(C)C [Example 181]")
8.10
>>> test_value("CC(C)(C)[C@H](c1nn(-c2cc(F)ccc2F)cc1Cc1ccccc1)N(CCCN)C(=O)CO [Example 96]")
8.11
>>> test_value("CC(C)(C)[C@H](c1cc(-c2cc(F)ccc2F)cn1Cc1ccccc1)N(CCCN)C(=O)CSCCCCCC(=O)NCCN1C(=O)CC(SC[C@H](N)C(=O)O)C1=O.O=C(O)C(F)(F)F.O=C(O)C(F)(F)F (stereo partly drawn) [Example 141]")
9.04
>>> test_value("C[C@H](NC(=O)CCNC(=O)[C@@H](N)CCN(C(=O)CO)[C@@H](c1nc(-c2cc(F)ccc2F)cn1Cc1ccccc1)C(C)(C)C)C(=O)N[C@@H](CCCNC(N)=O)C(=O)O.O=C(O)C(F)(F)F [Example 73]")
8.34
>>> test_value("CC(C)(C)[C@@H](c1cc(-c2cc(F)ccc2F)cn1Cc1ccccc1)N(CCCN)C(=O)CO [Example 102]")
8.33
>>> test_value("CC(C)(C)[C@H](c1nn(-c2cc(F)ccc2F)cc1Cc1ccccc1)N(CC[C@H](N)C(=O)NCCNC(=O)CSC[C@H](N)C(=O)O)C(=O)CO.O=C(O)C(F)(F)F [Example 136]")
9.48

Source of measurements: patent US10022453B2
